These entries and their values trace back to paper PMC7734625.

Listed here: items and their measured tissue to tissue ratio at 4 h.
Assay: biodistribution in A431-CCK2R/A431-mock xenografted BALB/c nude mice
Type: in vivo
Details: female, athymic BALB/c nude, mouse, A431-CCK2R xenograft tumor / blood, iv, 20 pmol, total radioactivity, 20 pmol, 4 h p.i.; read-out: tumor-to-blood ratio
Non-standard residues stand in square brackets, D forms with d. Residues, ends and D or L forms follow the SMILES beside them. *: point of attachment. DOTA = O=C(O)CN1CCN(CC(=O)O)CCN(CC(=O)*)CCN(CC(=O)O)CC1; 1Nal = N[C@@H](Cc1cccc2ccccc12)C(=O)O; NMeNle = CCCC[C@H](NC)C(=O)O
Lab note: jot down the number only; don't add units.

Solved entries (count: 2):
- compound: "CCCC[C@@H](C(=O)N[C@@H](CC(=O)O)C(=O)N[C@@H](Cc1cccc2ccccc12)C(N)=O)N(C)C(=O)[C@H](Cc1c[nH]c2ccccc12)NC(=O)[C@@H]1CCCN1C(=O)[C@H](Cc1ccc(O)cc1)NC(=O)[C@H](C)NC(=O)[C@@H](CCC(=O)O)NC(=O)CN1CCN(CC(=O)O)CCN(CC(=O)O)CCN(CC(=O)O)CC1 [[^177Lu]Lu-3, metal not drawn] ({DOTA}-[dE]AYPW[NMeNle]D[1Nal]-NH2)"
  tissue to tissue ratio at 4 h: 709
- compound: "CCCC[C@@H](C(=O)N[C@@H](CC(=O)O)C(=O)N[C@@H](Cc1cccc2ccccc12)C(N)=O)N(C)C(=O)[C@H](Cc1c[nH]c2ccccc12)NC(=O)CNC(=O)[C@@H]1CCCN1C(=O)[C@H](Cc1ccc(O)cc1)NC(=O)[C@@H](CCC(=O)O)NC(=O)CN1CCN(CC(=O)O)CCN(CC(=O)O)CCN(CC(=O)O)CC1 [[^177Lu]Lu-2, metal not drawn] ({DOTA}-[dE]YPGW[NMeNle]D[1Nal]-NH2)"
  tissue to tissue ratio at 4 h: 429

// below: tissue to tissue ratio at 4 h requested for another compound
**Query** Find the measured tissue to tissue ratio at 4 h of CCCC[C@@H](C(=O)N[C@@H](CC(=O)O)C(=O)N[C@@H](Cc1cccc2ccccc12)C(N)=O)N(C)C(=O)[C@H](Cc1c[nH]c2ccccc12)NC(=O)CNC(=O)[C@H](Cc1ccc(O)cc1)NC(=O)[C@@H]1CCCN1C(=O)[C@@H](CCC(=O)O)NC(=O)CN1CCN(CC(=O)O)CCN(CC(=O)O)CCN(CC(=O)O)CC1 [[^177Lu]Lu-1, metal not drawn] ({DOTA}-[dE]PYGW[NMeNle]D[1Nal]-NH2) and report it.
**Result** 540

* * *

Experiment: biodistribution in A431-CCK2R/A431-mock xenografted BALB/c nude mice
Assay type: in vivo
Conditions: female, athymic BALB/c nude, mouse, stomach, iv, 150 pmol, total radioactivity, 150 pmol, 4 h p.i.; read-out: uptake in stomach
Non-standard residues stand in square brackets, D forms with d. Residues, ends and D or L forms follow the SMILES beside them. *: point of attachment. DOTA = O=C(O)CN1CCN(CC(=O)O)CCN(CC(=O)*)CCN(CC(=O)O)CC1; 1Nal = N[C@@H](Cc1cccc2ccccc12)C(=O)O; NMeNle = CCCC[C@H](NC)C(=O)O
value.kind: tissue uptake at 4 h (%ID/g)
Expressed in %ID/g, but write only the number.

- compound: "CCCC[C@@H](C(=O)N[C@@H](CC(=O)O)C(=O)N[C@@H](Cc1cccc2ccccc12)C(N)=O)N(C)C(=O)[C@H](Cc1c[nH]c2ccccc12)NC(=O)CNC(=O)[C@H](Cc1ccc(O)cc1)NC(=O)[C@@H]1CCCN1C(=O)[C@@H](CCC(=O)O)NC(=O)CN1CCN(CC(=O)O)CCN(CC(=O)O)CCN(CC(=O)O)CC1 [[^177Lu]Lu-1, metal not drawn] ({DOTA}-[dE]PYGW[NMeNle]D[1Nal]-NH2)"
  value.kind: "tissue uptake at 4 h"
  output.unit: "%ID/g"
  measured.result: 1.26

We next turn to a different compound, shown below.
**Query** Consider the compound CCCC[C@@H](C(=O)N[C@@H](CC(=O)O)C(=O)N[C@@H](Cc1cccc2ccccc12)C(N)=O)N(C)C(=O)[C@H](Cc1c[nH]c2ccccc12)NC(=O)CNC(=O)[C@@H]1CCCN1C(=O)[C@H](Cc1ccc(O)cc1)NC(=O)[C@@H](CCC(=O)O)NC(=O)CN1CCN(CC(=O)O)CCN(CC(=O)O)CCN(CC(=O)O)CC1 [[^177Lu]Lu-2, metal not drawn] ({DOTA}-[dE]YPGW[NMeNle]D[1Nal]-NH2) and give its recorded tissue uptake at 4 h.
**Result** 1.02
